# target.entity: T1, SHANK1, Q9Y566
# T1 sequence (Q9Y566 658-767, limits assumed, looked up): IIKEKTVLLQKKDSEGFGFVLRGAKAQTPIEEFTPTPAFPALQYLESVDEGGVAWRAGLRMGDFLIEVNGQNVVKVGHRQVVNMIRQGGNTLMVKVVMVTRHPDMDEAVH
# run.description: holdup assay
# Design: key: below the threshold = too weak to quantify, mostly under pKd 3.1 to 4
# experimental.setup: plain residues with an end cap or a label only (N-terminal biotin on a linker: ado-ado)
test.readout: pKd

[[record]]
binder = "TLPRKRMSSI [GPRC6A, Q5T6X5]"
result_value = "below the threshold"

[[record]]
binder = "MLSKQSESAI [FLVCR1, Q9Y5Y0]"
result_value = "below the threshold"

[[record]]
binder = "RRLPGKETMA [GRIK2, Q13002]"
result_value = "below the threshold"

[[record]]
binder = "PAPSSGKDYV [CLDN1, O95832]"
result_value = "below the threshold"

[[record]]
binder = "DTTVPESEDL [MYOZ2, Q9NPC6]"
result_value = "below the threshold"

[[record]]
binder = "EALLQMESVA [CAVIN3, Q969G5]"
result_value = "below the threshold"

[[record]]
binder = "DDEDRLVIEI [ZNF831, Q5JPB2]"
result_value = "below the threshold"

[[record]]
binder = "QGPVETESVV [SLC45A4, Q5BKX6]"
result_value = "below the threshold"

[[record]]
binder = "LGRSTPQSEV [DGKH, Q86XP1]"
result_value = "below the threshold"

[[record]]
binder = "PDGQCTVTEV [RNF146, Q9NTX7]"
result_value = "below the threshold"

[[record]]
binder = "SKENVQETQI [LRRC4B, Q9NT99]"
result_value = 3.98

[[record]]
binder = "YLEPVLSSEL [ATP2A2, P16615;P16615-3]"
result_value = 4.67

[[record]]
binder = "TPPAAKKSRI [BAZ1A, Q9NRL2]"
result_value = 3.53

[[record]]
binder = "VYPNAKVELV [PDLIM4_iso2, P50479;P50479-1]"
result_value = "below the threshold"

[[record]]
binder = "PLSPEQPTKL [TRIM50, Q86XT4]"
result_value = "below the threshold"

[[record]]
binder = "SAAKVLTSMC [GHRHR, Q02643]"
result_value = 3.89

